Assay: plasma pharmacokinetics in patients (HPLC–MS/MS, non-compartmental analysis)
Type: in vivo, human
Conditions: human, plasma, oral, Dose-level 7: dacomitinib 30 mg (5/2) QD + PD-0325901 6 mg (5/2) BID; Cycle 1 Day 1; n = 3; read-out: AUC0-24h dacomitinib, mean (CV%)
Method: For pharmacokinetic analyses, serial blood samples were obtained from all patients prior to treatment administration on day 1, and 1, 2, 3, 4, 6, 8, 12, 24, 72 and 144 h after the first dose. […] Transitions from m/z 480 to 329 and m/z 489 to 255 were monitored for the detection of dacomitinib and PD-0325901, respectively. Stable isotope-labelled internal standards were used for the quantification. […]
property: AUC(0-t) (µg·h/mL)
Answers are plain numbers, in µg·h/mL.

# query: AUC(0-t) of entry COc1cc2ncnc(Nc3ccc(F)c(Cl)c3)c2cc1NC(=O)/C=C/CN1CCCCC1 0.29

This collection of values is drawn from paper PMC7156736.
